tested-target: D(2) dopamine receptor (Homo sapiens)
protocol-notes: Dopamine D2 receptor (DRD2) small molecule antagonists, cell-based qHTS assay (AID 1963595)
settings: HEK293-DRD2 cAMP HTRF antagonist mode; series mostly up to 92.4 µM
Results filed as inconclusive are left out. Active and inactive are the calls of the source. Calls come from the whole dose curve; as a rule, active = well fitted inhibition curve with a large enough effect in the signal ratio in the repeat runs, with a control signal flat; inconclusive = weak or mixed curves, or effect the other way; inactive = flat fitted curve, though single readings scatter; the % refers to the signal ratio.
Returns: one label drawn from class 1 for active, class 0 for inactive

Field: example entries. Status: answers known.
[
  {
    "compound": "CCCCc1ccc(O)cc1",
    "label-class": "class 0"
  },
  {
    "compound": "CC(C)(CCl)C(=O)Cl",
    "label-class": "class 0"
  }
]

**Q:** Recorded test outcome, item CC(C)(C)NCC(O)c1cc(Cl)c(N)c(C(F)(F)F)c1 (stereo not drawn)
**A:** class 1

**Q:** Recorded test outcome, item `CC(C)(c1cc(Cl)c(O)c(Cl)c1)c1cc(Cl)c(O)c(Cl)c1`
**A:** class 0

**Q:** Recorded test outcome, item C[N+]1(CCF)[C@@H]2CC[C@H]1CC(OC(=O)C(O)(c1ccccc1)c1ccccc1)C2 (stereo partly drawn)
**A:** class 0

**Q:** Recorded test outcome, item CCCC[P+](CC)(CCCC)CCCC (tested in a mixture with another compound)
**A:** class 0

**Q:** Recorded test outcome, item CN(CCCC(O)c1cccnc1)N=O (stereo not drawn)
**A:** class 0

**Q:** Recorded test outcome, item `CCCCN(CCCC)C(=S)[S-].CCCCN(CCCC)C(=S)[S-].[Zn+2]`
**A:** class 0

**Q:** Recorded test outcome, item `CCC(CC)(CNC(=O)CCCO)c1cccc(OC)c1`
**A:** class 0

**Q:** Recorded test outcome, item `Nc1cc(Cl)ccc1O`
**A:** class 0

**Q:** Recorded test outcome, item CCOP(=S)(OCC)Oc1ccc(S(C)=O)cc1 (stereo not drawn)
**A:** class 0

**Q:** Recorded test outcome, item `CCNC(=O)NC(=O)/C(C#N)=N/OC`
**A:** class 0

**Q:** Recorded test outcome, item `CN`
**A:** class 0

----------
protocol-notes: p53 small molecule agonists, cell-based qHTS assay with human liver microsomes (AID 1963577);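 note: p53 response element beta-lactamase reporter cells with liver microsomes plus NADPH; % is set by controls: 0 for no effect and ±100 for the full control effect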
settings: HCT-116 p53RE-bla with human liver microsomes, ratio, 16 h; series mostly up to 66 µM
Records with an inconclusive call do not appear. The source made the active and inactive calls. The call rests on the fitted dose curve.
readout: activation

[
  {
    "compound": "S=C(SSC(=S)N1CCCCC1)N1CCCCC1",
    "reported-value": "inactive"
  },
  {
    "compound": "COc1cc(Cl)c(OC)cc1Cl",
    "reported-value": "inactive"
  },
  {
    "compound": "C[CH2][Hg][N]1C(=O)C2C(C1=O)C1(Cl)C(Cl)=C(Cl)C2(Cl)C1(Cl)Cl (stereo not drawn)",
    "reported-value": "-12.1% [at 13.5 µM] (inactive)"
  }
]

----------
Measured Potency, listed per entry.
tested-target: KiSS-1 receptor (Homo sapiens) (UniProt Q969F8)
Sequence (Q969F8 whole entry, looked up): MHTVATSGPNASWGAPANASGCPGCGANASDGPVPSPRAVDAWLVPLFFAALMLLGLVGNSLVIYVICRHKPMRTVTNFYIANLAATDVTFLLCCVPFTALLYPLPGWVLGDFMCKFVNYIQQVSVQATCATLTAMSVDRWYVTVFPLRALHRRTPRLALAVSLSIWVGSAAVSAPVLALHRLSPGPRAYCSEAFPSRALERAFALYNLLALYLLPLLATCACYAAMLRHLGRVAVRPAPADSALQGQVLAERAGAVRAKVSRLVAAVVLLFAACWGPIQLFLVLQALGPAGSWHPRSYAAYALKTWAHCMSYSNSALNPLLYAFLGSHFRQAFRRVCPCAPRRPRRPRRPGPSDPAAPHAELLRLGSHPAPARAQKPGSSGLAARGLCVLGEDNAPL
protocol-notes: Human kisspeptin (KISS1R) small molecule agonists, calcium flux assay in KISS1R-HEK293 cells (AID 1920064); note: potency is the fitted concentration of half-maximal effect
settings: KISS1R-HEK293, calcium flux fluorescence, agonist; series mostly up to 76.8 µM
Calls of active or inactive are those of the source. The call rests on the fitted dose curve; in most records, active means well fitted activation curve with a large enough effect in the repeat runs; inconclusive means weak or mixed curves; inactive means flat fitted curve, though single readings scatter.

The examples below pair each entry with its known result.
[
  {
    "structure-as-smiles": "C=CC(=O)[O][Sn]([CH2]CCC)([CH2]CCC)[CH2]CCC",
    "Potency": "19.5 µM (active)"
  },
  {
    "structure-as-smiles": "CCC[CH2][Sn]([CH2]CCC)([CH2]CCC)[O]C(=O)c1ccccc1",
    "Potency": "19.5 µM (active)"
  },
  {
    "structure-as-smiles": "C=C(C)C(=O)[O][Sn]([CH2]CCC)([CH2]CCC)[CH2]CCC",
    "Potency": "11 µM (active)"
  }
]

**Q:** What value of Potency has been reported for the following compound? `CCCCCCC[CH2][Sn]([Cl])([Cl])[CH2]CCCCCCC`
**A:** 48.9 µM (active)

**Q:** What value of Potency has been reported for the following compound? `C[C@@H]1CC[C@@]2(OC1)O[C@H]1[C@@H](O)[C@H]3[C@@H]4CC[C@H]5C[C@@H](O[C@@H]6O[C@H](CO)[C@H](O[C@@H]7O[C@H](CO)[C@@H](O)[C@H](O[C@@H]8OC[C@@H](O)[C@H](O)[C@H]8O)[C@H]7O[C@@H]7O[C@H](CO)[C@@H](O)[C@H](O[C@@H]8O[C@H](CO)[C@@H](O)[C@H](O)[C@H]8O)[C@H]7O)[C@H](O)[C@H]6O)[C@H](O)C[C@]5(C)[C@H]4CC[C@]3(C)[C@H]1[C@@H]2C`
**A:** 23.2 µM (active)

**Q:** What value of Potency has been reported for the following compound? `CC(=O)[O][Sn]([c]1ccccc1)([c]1ccccc1)[c]1ccccc1`
**A:** 49 µM (active)

----------
tested-target: 5-hydroxytryptamine receptor 2A (Homo sapiens) (UniProt P28223)
Sequence (P28223 whole entry, looked up): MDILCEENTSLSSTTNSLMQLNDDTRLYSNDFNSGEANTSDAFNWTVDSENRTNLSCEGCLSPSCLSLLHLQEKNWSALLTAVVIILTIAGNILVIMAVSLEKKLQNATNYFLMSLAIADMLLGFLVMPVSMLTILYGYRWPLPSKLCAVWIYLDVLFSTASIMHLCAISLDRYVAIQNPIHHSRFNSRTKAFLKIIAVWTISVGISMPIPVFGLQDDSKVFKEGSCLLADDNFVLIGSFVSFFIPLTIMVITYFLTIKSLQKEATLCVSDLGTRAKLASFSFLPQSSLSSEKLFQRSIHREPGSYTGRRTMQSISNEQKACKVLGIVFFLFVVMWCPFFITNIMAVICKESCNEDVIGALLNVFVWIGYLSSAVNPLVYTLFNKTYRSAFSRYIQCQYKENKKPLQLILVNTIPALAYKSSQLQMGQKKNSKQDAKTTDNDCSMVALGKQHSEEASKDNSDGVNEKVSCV
protocol-notes: 5-hydroxytryptamine receptor 2A (HTR2A) small molecule agonists, cell-based qHTS assay (AID 1963587); note: nearly all actives have a fitted effect of over 30% in size
settings: HTR2A-CHO cells, calcium flux fluorescence, agonist mode; series mostly up to 76.8 µM
Results filed as inconclusive are left out. The source made the active and inactive calls. The call rests on the fitted dose curve.
Returns: one label drawn from active, inactive

Field: example entries. Status: answers known.
[
  {
    "compound": "CCC(C)(NC(=O)c1cc(Cl)c(C)c(Cl)c1)C(=O)CCl (configuration not stated)",
    "label-class": "active"
  },
  {
    "compound": "CCOP(=O)(SC(C)CC)N1CCSC1=O (configuration not stated)",
    "label-class": "inactive"
  },
  {
    "compound": "C[N+]1(CCF)[C@@H]2CC[C@H]1CC(OC(=O)C(O)(c1ccccc1)c1ccccc1)C2 (some centres not stated)",
    "label-class": "inactive"
  },
  {
    "compound": "C[C@@H](Oc1ccc(Cl)cc1Cl)C(=O)O",
    "label-class": "inactive"
  },
  {
    "compound": "NNCCO",
    "label-class": "inactive"
  }
]

**Q:** Recorded test outcome, item CC(Oc1cccc(Cl)c1)C(=O)O (configuration not stated)
**A:** inactive

**Q:** Recorded test outcome, item `Cn1sc(Cl)cc1=O`
**A:** active

----------
protocol-notes: p53 small molecule agonists, cell-based qHTS assay: qHTS cell viability counter screen (AID 1963581); note: nearly all actives have a fitted effect of over 45% in size
settings: p53RE-bla HCT-116 viability, ATP luminescence, 16 h; series mostly up to 66 µM
Records with an inconclusive call do not appear. Activity calls are given as the source filed them. Calls follow the shape of the full dose curve.
Returns: one label drawn from yes (active), no (inactive)

Field: example entries. Status: answers known.
[
  {
    "molecule": "CCOC(C(=O)OCCN(C)C)(c1ccccc1)c1ccccc1",
    "label-class": "no"
  },
  {
    "molecule": "CC(C)(c1ccc(O)c(-c2ccccc2)c1)c1ccc(O)c(-c2ccccc2)c1",
    "label-class": "yes"
  },
  {
    "molecule": "CCC/C(=N\\OCC)C1=C(O)CC(CC(C)SCC)CC1=O (configuration not stated)",
    "label-class": "no"
  },
  {
    "molecule": "CN(C)C1CSSSC1",
    "label-class": "no"
  },
  {
    "molecule": "CC1CCC(C(C)C)C(OC(=O)c2ccccc2N)C1 (configuration not stated)",
    "label-class": "yes"
  },
  {
    "molecule": "O=C(NC(=O)c1c(F)cccc1F)Nc1ccc(Oc2ccc(C(F)(F)F)cc2Cl)cc1F",
    "label-class": "no"
  },
  {
    "molecule": "ClSC(Cl)(Cl)Cl",
    "label-class": "no"
  },
  {
    "molecule": "c1csc(-c2ccc(-c3cccs3)s2)c1",
    "label-class": "no"
  },
  {
    "molecule": "CCCN",
    "label-class": "no"
  },
  {
    "molecule": "O=C1OC(c2ccc(O)c(S(=O)(=O)O)c2)(c2ccc(O)c(S(=O)(=O)O)c2)c2c(Br)c(Br)c(Br)c(Br)c21",
    "label-class": "no"
  }
]

**Q:** Recorded test outcome, item `CC1(C)CON(Cc2ccccc2Cl)C1=O`
**A:** no

**Q:** Recorded test outcome, item `CCOP(=S)(OCC)Oc1ncn(-c2ccccc2)n1`
**A:** no

----------
protocol-notes: Nuclear factor erythroid 2-related factor 2/antioxidant responsive element (Nrf2/ARE) small molecule agonists: luciferase reporter gene qHTS assay in human keratinocytes (AID 1919969); note: % is set by controls: 0 for no effect and ±100 for the full control effect; nearly all actives have a fitted effect of over 35% in size
settings: KeratinoSens HaCaT ARE-luciferase, luminescence, 24 h; series mostly up to 92.4 µM
Source text: National Center for Advancing Translational Sciences [NCATS] Division of Preclinical Innovation [DPI] U.S. Environmental Protection Agency [EPA] National Institutes of Environmental Health Sciences [NIEHS] National Toxicology Program [NTP] […] Oxidative stress has been implicated in the pathogenesis of a variety of diseases ranging from cancer to neurodegeneration. […] The activation of the report gene under culture conditions can be detected by ONE-Glo Luciferase Assay System (Promega, Madison, WI). […]
Inconclusive results are not listed. Calls of active or inactive are those of the source. Calls follow the shape of the full dose curve.
readout: outcome

The examples below pair each entry with its known result.
[
  {
    "compound": "O=C1C(Cl)C(CCl)CN1c1cccc(C(F)(F)F)c1 (configuration not stated)",
    "outcome": "inactive"
  },
  {
    "compound": "NC(=O)C(Cl)Cl",
    "outcome": "inactive"
  },
  {
    "compound": "CCC(CC)(CNC(=O)CCCO)c1cccc(OC)c1",
    "outcome": "inactive"
  },
  {
    "compound": "CS(=O)(=O)c1ccc(C(=O)C2C(=O)CCCC2=O)c([N+](=O)[O-])c1",
    "outcome": "inactive"
  }
]

**Q:** What value of outcome has been reported for the following compound? `NNCCO`
**A:** inactive

**Q:** What value of outcome has been reported for the following compound? `CC(C)N1C(=O)N(c2ccccc2)CSC1=NC(C)(C)C`
**A:** inactive

**Q:** What value of outcome has been reported for the following compound? `COC(=O)COc1ccc(Cl)cc1Cl`
**A:** inactive
